Measured values drawn from patent US20030144263A1 for this set.

MOLECULE	melting point
CS(=O)(=O)c1ccc(N2C[C@H](COc3ccon3)OC2=O)cc1 [Example 163]	180 °C
O=C([C@H](O)CO)N1CC=C(c2ccc(N3C[C@H](COc4ccon4)OC3=O)cc2)CC1 [Example 40]	138 to 144 °C
O=C1O[C@@H](COc2cnsn2)CN1c1ccc(C2=CCOCC2)c(F)c1 [Example 10]	46 to 48 °C
O=C1O[C@@H](COc2cnsn2)CN1c1ccc(C2=CCOCC2)c(F)c1 [Example 142]	146 to 148 °C
O=C1O[C@@H](COc2cnsn2)CN1c1ccc(N2C[C@@H]3C[C@H]2CN3Cc2ccccc2)c(F)c1 [Example 154]	97 to 98 °C
O=C([C@@H](O)CO)N1CC=C(c2ccc(N3C[C@H](COc4ccon4)OC3=O)cc2)CC1 [Example 41]	200 to 202 °C (dec.)
